total protein half-life in vivo for assorted sequences
Assay: total protein half-life in vivo (active degradation + dilution); higher = more stable protein
Details: wild type E. coli NCM3722; growth: P-lim chemostat; doubling time 6 h
The reply should be a number in h, with the unit left off.

1. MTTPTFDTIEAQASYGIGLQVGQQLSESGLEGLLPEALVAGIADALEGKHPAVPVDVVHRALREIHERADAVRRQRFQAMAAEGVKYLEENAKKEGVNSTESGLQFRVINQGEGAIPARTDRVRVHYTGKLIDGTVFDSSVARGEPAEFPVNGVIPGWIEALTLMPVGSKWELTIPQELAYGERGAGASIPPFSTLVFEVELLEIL [P0A9L3]    5.59

Consider the additional sequence presented here.
Task: For the sequence shown here, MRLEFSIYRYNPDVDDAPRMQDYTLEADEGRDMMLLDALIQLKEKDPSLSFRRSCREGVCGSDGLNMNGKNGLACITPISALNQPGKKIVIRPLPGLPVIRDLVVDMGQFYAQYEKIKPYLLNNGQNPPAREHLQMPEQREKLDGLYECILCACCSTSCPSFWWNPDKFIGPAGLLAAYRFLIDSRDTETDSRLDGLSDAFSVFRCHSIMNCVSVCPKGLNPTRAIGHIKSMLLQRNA , give the reported total protein half-life in vivo.
Result: 5.14

###

total protein half-life in vivo for assorted sequences
Test: total protein half-life in vivo (active degradation + dilution); higher = more stable protein
Settings: E. coli NCM3722 delta-clpP delta-lon delta-hslV; growth: N-lim chemostat; doubling time 6 h
The reply should be a number in h, with the unit left off.

1) MKKILTTPIKAEDLQDIRVGDVIYLTGTLVTCRDVCHRRLIELKRPIPYDLNGKAIFHAGPIVRKNGDKWEMVSVGPTTSMRMESFEREFIEQTGVKLVVGKGGMGPLTEEGCQKFKALHVIFPAGCAVLAATQVEEIEEVHWTELGMPESLWVCRVKEFGPLIVSIDTHGNNLIAENKKLFAERRDPIVEEICEHVHYIK [P0AC35]    6.21

Consider the additional sequence presented here.
Task: For the sequence shown here, MMLSKKNSETLENFSEKLEVEGRSLWQDARRRFMHNRAAVASLIVLVLIALFVILAPMLSQFAYDDTDWAMMSSAPDMESGHYFGTDSSGRDLLVRVAIGGRISLMVGVAAALVAVVVGTLYGSLSGYLGGKVDSVMMRLLEILNSFPFMFFVILLVTFFGQNILLIFVAIGMVSWLDMARIVRGQTLSLKRKEFIEAAQVGGVSTSGIVIRHIVPNVLGVVVVYASLLVPSMILFESFLSFLGLGTQEPLSSWGALLSDGANSMEVSPWLLLFPAGFLVVTLFCFNFIGDGLRDALDPKDR [P0AFH6] , give the reported total protein half-life in vivo.
Result: 5.16

###

Assay: total protein half-life in vivo (active degradation + dilution); higher = more stable protein
Details: E. coli NCM3722 delta-lon; growth: N-lim chemostat; doubling time 6 h
measurement.label: total protein half-life in vivo (h)
The reply should be a number in h, with the unit left off.

Some entries whose results are on file:
1) MRNLVKYVGIGLLVMGLAACDDKDTNATAQGSVAESNATGNPVNLLDGKLSFSLPADMTDQSGKLGTQANNMHVWSDATGQKAVIVIMGDDPKEDLAVLAKRLEDQQRSRDPQLQVVTNKAIELKGHKMQQLDSIISAKGQTAYSSVILGNVGNQLLTMQITLPADDQQKAQTTAENIINTLVIQ [P0AEE1]    6.24
2) MARINRISITLCALLFTTLPLTPMAHASKQARESSATTHITKKADKKKSTATTKKTQKTAKKAASKSTTKSKTASSVKKSSITASKNAKTRSKHAVNKTASASFTEKCTKRKGYKSHCVKVKNAASGTLADAHKAKVQKATKVAMNKLMQQIGKPYRWGGSSPRTGFDCSGLVYYAYKDLVKIRIPRTANEMYHLRDAAPIERSELKNGDLVFFRTQGRGTADHVGVYVGNGKFIQSPRTGQEIQITSLSEDYWQRHYVGARRVMTPKTLR    2.15
3) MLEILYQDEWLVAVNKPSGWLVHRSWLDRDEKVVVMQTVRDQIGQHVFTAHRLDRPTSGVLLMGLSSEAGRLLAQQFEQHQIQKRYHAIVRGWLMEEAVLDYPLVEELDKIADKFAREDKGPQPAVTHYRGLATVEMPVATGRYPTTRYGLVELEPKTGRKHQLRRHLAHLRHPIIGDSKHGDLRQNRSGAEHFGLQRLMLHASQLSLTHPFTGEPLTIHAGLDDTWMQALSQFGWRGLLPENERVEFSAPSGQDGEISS [P0AA41]    4.49

Task: For the sequence shown here, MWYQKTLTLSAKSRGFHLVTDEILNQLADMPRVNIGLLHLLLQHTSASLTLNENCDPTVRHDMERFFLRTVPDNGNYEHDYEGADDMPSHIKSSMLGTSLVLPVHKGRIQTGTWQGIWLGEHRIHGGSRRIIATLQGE [P0AF48] , give the reported total protein half-life in vivo.
Result: 4.31

###

Assay: total protein half-life in vivo (active degradation + dilution); higher = more stable protein
Conditions: wild type E. coli NCM3722; growth: C-lim chemostat; doubling time 6 h
total protein half-life in vivo for assorted sequences
The reply should be a number in h, with the unit left off.

Some entries whose results are on file:
1) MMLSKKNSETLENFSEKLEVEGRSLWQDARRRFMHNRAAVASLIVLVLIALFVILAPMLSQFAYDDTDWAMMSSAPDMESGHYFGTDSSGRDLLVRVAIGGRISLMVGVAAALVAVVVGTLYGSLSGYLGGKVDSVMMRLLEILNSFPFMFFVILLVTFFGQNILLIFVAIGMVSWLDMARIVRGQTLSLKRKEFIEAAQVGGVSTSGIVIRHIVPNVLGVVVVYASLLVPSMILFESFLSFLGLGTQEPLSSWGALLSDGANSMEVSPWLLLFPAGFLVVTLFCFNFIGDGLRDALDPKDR [P0AFH6]    5.48
2) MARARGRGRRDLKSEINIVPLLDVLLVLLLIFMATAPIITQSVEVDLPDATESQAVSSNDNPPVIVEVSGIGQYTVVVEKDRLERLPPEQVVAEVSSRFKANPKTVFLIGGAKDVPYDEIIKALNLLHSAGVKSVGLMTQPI [P0ABV6]    5.69
3) MRLFNWRRQAVLNAMPLVKPDQVRTPWHEFWRRFRRQHMAMTAALFVILLIVVAIFARWIAPYDAENYFDYDNLNNGPSLQHWFGVDSLGRDIFSRVLVGAQISLAAGVFAVFIGAAIGTLLGLLAGYYEGWWDRLIMRICDVLFAFPGILLAIAVVAVLGSGIANVIIAVAIFSIPAFARLVRGNTLVLKQQTFIESARSIGASDMTVLLRHILPGTVSSIVVFFTMRIGTSIISAASLSFLGLGAQPPTPEWGAMLNEARADMVIAPHVAVFPALAIFLTVLAFNLLGDGLRDALDPKIKG    6.44

Task: For the sequence shown here, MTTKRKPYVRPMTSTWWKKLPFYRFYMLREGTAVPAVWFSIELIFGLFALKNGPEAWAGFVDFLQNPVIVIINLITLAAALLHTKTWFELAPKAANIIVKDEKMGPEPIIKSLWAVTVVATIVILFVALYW [P0A8Q0] , give the reported total protein half-life in vivo.
Result: 5.55

Task: For the sequence shown here, MAIILGIDPGSRVTGYGVIRQVGRQLSYLGSGCIRTKVDDLPSRLKLIYAGVTEIITQFQPDYFAIEQVFMAKNADSALKLGQARGVAIVAAVNQELPVFEYAARQVKQTVVGIGSAEKSQVQHMVRTLLKLPANPQADAADALAIAITHCHVSQNAMQMSESRLNLARGRLR [P0A814] , give the reported total protein half-life in vivo.
Result: 4.34

Task: For the sequence shown here, MHVTLVEINVHEDKVDEFIEVFRQNHLGSVQEEGNLRFDVLQDPEVNSRFYIYEAYKDEDAVAFHKTTPHYKTCVAKLESLMTGPRKKRLFNGLMP , give the reported total protein half-life in vivo.
Result: 3.66

Task: For the sequence shown here, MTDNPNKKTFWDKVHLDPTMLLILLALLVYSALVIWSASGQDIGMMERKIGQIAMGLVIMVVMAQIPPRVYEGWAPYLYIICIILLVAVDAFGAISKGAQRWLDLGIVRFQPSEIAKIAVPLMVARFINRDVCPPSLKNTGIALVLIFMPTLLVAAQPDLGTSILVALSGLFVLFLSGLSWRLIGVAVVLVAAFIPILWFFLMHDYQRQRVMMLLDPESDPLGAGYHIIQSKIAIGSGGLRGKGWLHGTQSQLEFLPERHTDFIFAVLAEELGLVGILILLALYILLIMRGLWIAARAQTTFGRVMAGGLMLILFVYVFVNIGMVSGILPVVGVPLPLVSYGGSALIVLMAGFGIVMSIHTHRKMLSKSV [P0ABG7] , give the reported total protein half-life in vivo.
Result: 5.94
